# abundance fitness per entry
B1: Neutrophil cytosol factor 2, residues 456 to 514; numbered along this chain, P19878 (parent)
chain: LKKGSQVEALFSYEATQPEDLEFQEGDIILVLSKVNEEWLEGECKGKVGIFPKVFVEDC

Variants of: B1
Test: abundance fitness (aPCA) (normalised: wild type 0, dead -1); higher = more abundant; growth selection in yeast, the domain comes from the species named
Details: Homo sapiens
Response field accepts a number only; no unit should be typed.

Please review the following examples before continuing.
Record Sequence: LKKGSQVEALFSYEATQPEDLEFQEGDIILVLSKVNMEWLEGECKGKVGIFPKVFVEDC [E37M]
abundance fitness: -0.506

Record Sequence: LKKGSQVEALFSYEATQPEDLEFQEGDIILVLSKVNEEWLEGECKGKVGPFPKVFVEDC [I50P]
abundance fitness: 0.096

Record Sequence: LKKGSQVEALFSYEATQPEDLEFQEGDIILVLSKVNEEWLEGECKGKVLIFPKVFVEDC [G49L]
abundance fitness: -0.42

Record Sequence: LKKGSQVEALFSYEATQPEDLEFQDGDIILVLSKVNEEWLEGECKGKVGIFPKVFVEDC [E25D]
abundance fitness: -0.9

Record Sequence: LKKGRQVEALFSYEATQPEDLEFQEGDIILVLSKVNEEWLEGECKGKVGIFPKVFVEDC [S5R]
abundance fitness: -0.116

Form field: reported abundance fitness of LKKGSQVEALFSYEATQPEDLEFQEGDIILVLSKVNEEWLEGECKKKVGIFPKVFVEDC [G46K]
-0.732

Form field: reported abundance fitness of LKKGSQVEALFSYEATQPEDLEFQLGDIILVLSKVNEEWLEGECKGKVGIFPKVFVEDC [E25L]
-0.731

Form field: reported abundance fitness of LKKGSQVEALFSMEATQPEDLEFQEGDIILVLSKVNEEWLEGECKGKVGIFPKVFVEDC [Y13M]
0.207

Form field: reported abundance fitness of LKKGSQVEALFSYEATQPEDLEFFEGDIILVLSKVNEEWLEGECKGKVGIFPKVFVEDC [Q24F]
-0.224

Form field: reported abundance fitness of LKKGSQVEALFSYEATQPEDLEFQEGFIILVLSKVNEEWLEGECKGKVGIFPKVFVEDC [D27F]
-0.493
